- System: human PBMC, CCR5-tropic HIV-1 replication, RT activity
- ASSAY DETAILS: inhibitors of CCR5-tropic HIV-1 replication in PBMCs, dose response, cell-based, human PBMC, R5-tropic strain, set 3 (AID 504626)
REPORTED METRIC: pIC50
pIC50 here is simply -log10 of the concentration when that concentration is written in mol/L.

[in] Answer with pIC50 of `Cc1c2c(=O)n(-c3nc4ccccc4s3)nc-2cc(O)n1Cc1ccccc1` measured for human PBMC, CCR5-tropic HIV-1 replication, RT activity.
[out] 5.80
